target: PCSK9; assay: Biacore SPR
pKd: −log10 of the molar value.
# pKd values compiled below

- Binder: "1B20 variant A3 (antibody, part only; not given: light chain, V domains shown, part only) VH: QVQLVQSGAEVKKPGESLKISCKGSGYSFTDYYISWVRQMPGKGLEWMGMIYPGDSYTRYSPNFQGQVTISADKSISTAYLQWSSLKASDTAMYYCARDHWYRPLSDIWGQGTLVTVSS"
  pKd: 8.10
- Binder: "1B20 variant A9 (antibody, part only; not given: light chain, probably the common parent VL, V domains shown, part only) VH: QVQLVQSGAEVKKPGESLKISCKGSGYSFTNYYISWVRQMPGKGLEWMGMIYPGDSYTRYSPKFQGQVTISADKSISTAYLQWSSLKASDTAMYYCARDHWYRPYSDIWGQGTLVTVSS"
  pKd: 8.71
- Binder: "1B20 variant H4 (antibody, part only; not given: light chain, probably the common parent VL, V domains shown, part only) VH: QVQLVQSGAEVKKPGESLKISCKGSGYSFTNYYITWVRQMPGRGLEWMGIIYPGDSYTRYNPKFQGQVTISADKSISTAYLQWSSLKASDTAMYYCARDHWSKPFSDVWGQGTLVTVSS"
  pKd: 8.82
- Binder: "1B20 variant C1 (antibody, part only; not given: light chain, probably the common parent VL, V domains shown, part only) VH: QVQLVQSGAEVKKPGESLKISCKGSGYSFTNYYISWVRQMPGKGLEWMGMIYPGDSYTRYSPKFQGQVTISADKSISTAYLQWSSLKASDTAMYYCARDHWYRPYSDIWGQGTLVTVSS"
  pKd: 8.78
- Binder: "1B20 variant A1 (antibody, part only; not given: light chain, probably the common parent VL, V domains shown, part only) VH: QVQLVQSGAEVKKPGESLKISCKGSGYSFTDYYISWVRQMPGKGLEWMGLIYPGDSYTRYNPSFQGQVTISADKSISTAYLQWSSLKASDTAMYYCARDYWSKPLSDIWGQGTLVTVSS"
  pKd: 8.67
- Binder: "1B20 variant G7 (antibody, part only; not given: light chain, probably the common parent VL, V domains shown, part only) VH: QVQLVQSGAEVKKPGESLKISCKGSGYSFTDYYISWVRQMPGKGLEWMGWIYPGDSYTHYSPSFQGQVTISADKSISTAYLQWSSLKASDTAMYYCARDHWSKPYFDVWGQGTLVTVSS"
  pKd: 8.69
